- TARGET_OR_SYSTEM: SRC (Homo sapiens, UniProt P12931)
- Sequence (P12931 whole entry): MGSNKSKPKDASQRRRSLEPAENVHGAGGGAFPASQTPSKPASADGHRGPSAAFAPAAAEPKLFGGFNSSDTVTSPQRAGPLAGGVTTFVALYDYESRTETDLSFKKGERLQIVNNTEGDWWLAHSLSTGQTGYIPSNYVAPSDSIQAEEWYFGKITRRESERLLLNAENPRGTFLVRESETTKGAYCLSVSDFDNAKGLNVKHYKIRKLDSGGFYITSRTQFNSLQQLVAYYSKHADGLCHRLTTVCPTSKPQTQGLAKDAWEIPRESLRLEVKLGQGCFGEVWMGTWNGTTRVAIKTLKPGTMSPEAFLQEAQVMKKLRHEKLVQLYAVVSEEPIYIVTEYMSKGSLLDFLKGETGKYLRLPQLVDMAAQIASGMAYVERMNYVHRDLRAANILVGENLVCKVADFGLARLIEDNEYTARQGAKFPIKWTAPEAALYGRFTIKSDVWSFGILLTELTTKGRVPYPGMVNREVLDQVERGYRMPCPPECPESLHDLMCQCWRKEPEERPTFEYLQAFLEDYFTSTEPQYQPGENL
- ASSAY_DETAILS: Inhibition of a panel of kinases, in vitro HotSpot kinase assay: SRC
- Format: biochemical
- SETUP_CONDITIONS: D-compounds panel data; 1 μM ATP
pIC50: −log10 of the molar value.
Could you please report measured pIC50 for the items listed next?

Exercise: Entry under review: C[C@@H]1[C@H](NC(=O)c2ccc3c(c2)C(C)(C)CO3)CCCN1c1cnc(C(N)=O)c(Nc2cnn(C)c2)n1 . Reported pIC50?
Solution: 7.00 to 8.00

Exercise: # lookup: pIC50 of C[C@@H]1[C@H](NC(=O)c2ccc(C(F)(F)F)nc2)CCCN1c1cnc(C(N)=O)c(Nc2cnn(C)c2)n1
Solution: 7.00 to 8.00

Exercise: Entry under review: Cn1cc(Nc2nc(N3C4CCC(NC(=O)c5ccc(C6CC6)cc5)C3CC4)cnc2C(N)=O)cn1 (single isomer, unassigned) [Example D-201] . Reported pIC50?
Solution: 7.00 to 8.00

Exercise: Can you share its pIC50? I mean this compound: C[C@@H]1[C@H](NC(=O)c2ccc(C3CC3)cc2)CCCN1c1cnc(C(N)=O)c(Nc2cc(C3CCOCC3)ns2)n1
Solution: 7.00 to 8.00

Exercise: Please give the measured pIC50 for this compound: C[C@@H]1[C@H](NC(=O)c2ccc(C(O)C(F)(F)F)cc2)CCCN1c1cnc(C(N)=O)c(Nc2cnn(C)c2)n1 (single isomer, unassigned) [Example D-249]
Solution: 7.00 to 8.00

Exercise: Entry under review: C[C@@H]1[C@H](NC(=O)c2ccc(C3CC3)cc2)CCCN1c1cnc(C(N)=O)c(Nc2ccc(OC3CCCN(C)C3)cc2)n1 (stereo partly shown) . Reported pIC50?
Solution: 7.00 to 8.00

Exercise: Look up pIC50: CN1CCN(C(=O)c2ccc(Nc3nc(N[C@H]4CC[C@@H](NC(=O)N(C)C)CC4)cnc3C(N)=O)cc2)CC1
Solution: 6.00 to 7.00

Exercise: For the compound shown here, Cn1cc(Nc2nc(N3CCC[C@H]4[C@@H]3CCCN4C(=O)c3ccc(C4CC4)cc3)cnc2C(N)=O)cn1 , give the reported pIC50.
Solution: 5.00 to 6.00

Exercise: // lookup pIC50 for CC(C)n1ccc(C(=O)N[C@@H]2CCCN(c3cnc(C(N)=O)c(Nc4cnn(C)c4)n3)[C@@H]2C)cc1=O
Solution: 7.00 to 8.00

Exercise: Which pIC50 value belongs to C[C@@H]1[C@H](NC(=O)N(C)C)CCCN1c1cnc(C(N)=O)c(Nc2cc(C3CCN(C4CCCC4)CC3)ns2)n1 ?
Solution: ≥ 8.00

Exercise: What value of measured pIC50 is listed for C[C@@H]1[C@H](NC(=O)c2ncc(C3CC3)cn2)CCCN1c1cnc(C(N)=O)c(Nc2cnn(C)c2)n1 ?
Solution: 7.00 to 8.00

Exercise: I have this compound here, C[C@@H]1[C@H](N2CCN(C)C2=O)CCCN1c1cnc(C(N)=O)c(Nc2ccc(C3(C)CCN(C4CC4)CC3)cc2)n1 , and I need its recorded pIC50.
Solution: 7.00 to 8.00

Exercise: # get_value(readout='pIC50', item= C[C@@H]1[C@H](NC(=O)c2ccc(S(C)(=O)=O)cc2)CCCN1c1cnc(C(N)=O)c(Nc2ccc(N3CCN(C)CC3)cc2)n1 )
Solution: ≥ 8.00

* * *

Record form. Attribute: IC50. Fill in for each entry.
- TARGET_OR_SYSTEM: LCK (Homo sapiens, UniProt P06239)
- Sequence (P06239 whole entry): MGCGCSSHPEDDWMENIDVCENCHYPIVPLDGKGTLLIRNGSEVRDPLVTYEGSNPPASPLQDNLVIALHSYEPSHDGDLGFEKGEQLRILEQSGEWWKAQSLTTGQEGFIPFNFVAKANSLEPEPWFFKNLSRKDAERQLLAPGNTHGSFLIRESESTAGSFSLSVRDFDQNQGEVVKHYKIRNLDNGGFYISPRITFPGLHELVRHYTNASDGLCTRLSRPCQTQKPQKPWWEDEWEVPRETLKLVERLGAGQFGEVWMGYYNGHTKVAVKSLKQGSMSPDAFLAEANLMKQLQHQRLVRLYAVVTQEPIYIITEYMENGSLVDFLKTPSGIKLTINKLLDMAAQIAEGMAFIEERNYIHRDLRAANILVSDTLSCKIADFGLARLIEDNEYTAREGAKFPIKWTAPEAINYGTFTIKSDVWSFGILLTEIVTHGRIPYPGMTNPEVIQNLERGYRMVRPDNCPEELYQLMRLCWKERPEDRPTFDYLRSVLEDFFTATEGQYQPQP
- ASSAY_DETAILS: Inhibition of a panel of kinases, in vitro HotSpot kinase assay: LCK
- Assay type: biochemical
- SETUP_CONDITIONS: E compounds, Table 17; read-out: IC50 LCK

Exercise: Field request: IC50 | item: C=CC(=O)N1CCC[C@@H](Nc2nnc(C(N)=O)c(Nc3ccc(-n4nccn4)cc3)n2)C1 [Example E-67]
Solution: 100 to 1000 nM

Exercise: Record request: IC50 value, item C[C@@H]1[C@H](NC(=O)c2ccc(C3CC3)cc2)CCCN1c1cnc(C(N)=O)c(Nc2ccc(N3CCN(C)C[C@@H]3C)cc2)n1 [Example E-148]
Solution: 10 to 100 nM

Exercise: IC50 lookup needed for C[C@@H]1CCN(c2cnc(C(N)=O)c(Nc3cnn(C)c3)n2)C[C@@H]1NC(=O)c1ccc(C2CC2)cc1 [Example E-140] , thanks.
Solution: 1000 to 10000 nM

Exercise: What measured IC50 goes with C=CC(=O)N[C@@H]1CCCN(c2nnc(C(N)=O)c(Nc3ccc(Cl)cc3)n2)[C@@H]1C [Example E-5] ?
Solution: < 10 nM

Exercise: # IC50 lookup, item C=CC(=O)N1CC[C@@H](N(C)c2cnc(C(N)=O)c(Nc3ccc(C4(C)CCN(C5CC5)CC4)cc3)n2)C1 [Example E-104]
Solution: 10 to 100 nM

Exercise: Need IC50, item C=CC(=O)N1CC[C@@H](N(C)c2cnc(C(N)=O)c(Nc3cnn(CCOC)c3)n2)C1 [Example E-110]
Solution: 1000 to 10000 nM

Exercise: Recorded IC50 of C[C@@H]1[C@H](NC(=O)c2cccc(C(C)(C)O)c2)CCCN1c1cnc(C(N)=O)c(Nc2cnn(C)c2)n1 [Example E-145] , please.
Solution: 10 to 100 nM

* * *

Would you kindly list IC50 for each of these compounds?
- TARGET_OR_SYSTEM: BTK-WT (Homo sapiens, UniProt Q06187)
- Construct: purified from insect cells as a full-length construct containing an N-terminal 6X-His tag; His6 (N); made in house; host or cells: insect cells (baculovirus Sf21 in Method B)
- Sequence (Q06187 whole entry): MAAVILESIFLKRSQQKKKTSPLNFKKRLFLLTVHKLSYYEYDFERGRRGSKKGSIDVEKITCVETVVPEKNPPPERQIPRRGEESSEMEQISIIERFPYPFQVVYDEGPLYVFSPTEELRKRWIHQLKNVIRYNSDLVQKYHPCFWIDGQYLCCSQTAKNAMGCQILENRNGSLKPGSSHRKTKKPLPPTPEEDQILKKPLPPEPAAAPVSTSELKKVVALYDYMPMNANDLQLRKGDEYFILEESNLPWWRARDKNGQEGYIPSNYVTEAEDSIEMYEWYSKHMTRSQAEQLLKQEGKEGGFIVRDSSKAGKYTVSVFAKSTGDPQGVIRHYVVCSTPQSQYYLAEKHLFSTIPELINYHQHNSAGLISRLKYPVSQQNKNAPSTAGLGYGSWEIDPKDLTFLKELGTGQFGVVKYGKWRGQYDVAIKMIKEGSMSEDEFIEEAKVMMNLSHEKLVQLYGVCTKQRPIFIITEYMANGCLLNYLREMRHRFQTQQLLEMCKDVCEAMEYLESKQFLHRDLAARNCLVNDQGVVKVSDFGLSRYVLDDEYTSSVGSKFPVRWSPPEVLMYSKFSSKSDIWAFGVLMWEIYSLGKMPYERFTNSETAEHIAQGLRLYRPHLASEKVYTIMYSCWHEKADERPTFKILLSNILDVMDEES
- ASSAY_DETAILS: Btk in vitro inhibitory activity (one of Method A TR-FRET, Method B electrophoretic mobility shift, Method C radiometric filter binding)
- Assay type: biochemical
- SETUP_CONDITIONS: Table 10, Formula A-I; read-out: BTK-WT (IC50)

Exercise: Observed IC50 on BTK-WT (Homo sapiens, UniProt Q06187) for Cc1cc(Nc2nc(N3CCCC(CNC(=O)c4ccccc4)C3)cnc2C(N)=O)sn1 (stereo not shown) , please.
Solution: ≤ 100 nM

Exercise: Please tell me: IC50 of Cc1cc(Nc2nc(N3CCC[C@H](NC(=O)c4ccc(N(C)C)cc4)[C@@H]3C)cnc2C(N)=O)sn1 , system BTK-WT (Homo sapiens, UniProt Q06187)?
Solution: ≤ 100 nM

Exercise: Tell me reported IC50 for CC(C)c1ccc(Nc2nc(N3CCC(C(N)=O)CC3)nnc2C(N)=O)cc1 , tested with BTK-WT (Homo sapiens, UniProt Q06187).
Solution: 100 to 1000 nM

Exercise: State its IC50 on BTK-WT (Homo sapiens, UniProt Q06187): Cc1cc(Nc2cc(N3CCC[C@@H](NC(=O)c4ccc(C(C)C)cc4)C3)cnc2C(N)=O)sn1
Solution: ≤ 100 nM

Exercise: Requested read-out IC50, target or system BTK-WT (Homo sapiens, UniProt Q06187), entry Cc1cc(Nc2nc(N3CC[C@@H](NC(=O)c4ccccc4)C3)cnc2C(N)=O)sn1
Solution: 100 to 1000 nM

Exercise: Fill in the recorded IC50 for this compound, with BTK-WT (Homo sapiens, UniProt Q06187) as test system: Cc1cc(Nc2nc(N3CCC[C@H](NC(=O)c4ccc(N(C)C)cc4)[C@@H]3CO)cnc2C(N)=O)sn1 (stereo in doubt)
Solution: ≤ 100 nM

Exercise: Query for BTK-WT (Homo sapiens, UniProt Q06187): what IC50 does the record show for Cc1cc(Nc2nc(N3CCC[C@@H](N4CCN(c5cccc(Cl)c5)C4=O)C3)cnc2C(N)=O)sn1 ?
Solution: ≤ 100 nM

* * *

- TARGET_OR_SYSTEM: UniProt P42680
- Sequence (P42680 whole entry): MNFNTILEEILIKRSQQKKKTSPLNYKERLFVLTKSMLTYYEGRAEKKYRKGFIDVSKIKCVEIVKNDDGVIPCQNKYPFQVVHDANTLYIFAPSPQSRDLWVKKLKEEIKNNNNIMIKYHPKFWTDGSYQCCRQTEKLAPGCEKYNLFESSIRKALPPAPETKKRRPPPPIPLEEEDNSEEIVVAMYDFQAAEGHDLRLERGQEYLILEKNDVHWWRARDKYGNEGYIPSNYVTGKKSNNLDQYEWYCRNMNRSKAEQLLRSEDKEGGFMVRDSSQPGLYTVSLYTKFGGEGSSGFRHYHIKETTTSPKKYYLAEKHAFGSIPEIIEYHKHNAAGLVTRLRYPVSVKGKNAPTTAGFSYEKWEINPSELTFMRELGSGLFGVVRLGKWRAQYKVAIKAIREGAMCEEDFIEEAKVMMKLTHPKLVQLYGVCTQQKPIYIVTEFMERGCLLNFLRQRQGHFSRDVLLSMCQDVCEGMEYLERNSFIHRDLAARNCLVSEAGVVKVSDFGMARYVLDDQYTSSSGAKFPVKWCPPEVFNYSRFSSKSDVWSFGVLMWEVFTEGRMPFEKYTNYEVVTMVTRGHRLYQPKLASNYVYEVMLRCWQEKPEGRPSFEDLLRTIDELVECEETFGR
- ASSAY_DETAILS: Inhibition of a panel of kinases, in vitro HotSpot kinase assay: TEC
- Assay type: biochemical
- SETUP_CONDITIONS: D-compounds panel data; 1 μM ATP
pIC50: −log10 of the molar value.
For each of the compounds below, state its pIC50.

Exercise: Lab note: need pIC50 with UniProt P42680 for entry C[C@@H]1[C@H](NC(=O)c2ccc(C3CC3)cc2)CCCN1c1cnc(C(N)=O)c(Nc2ccc(CN3CCOCC3)cc2)n1 , please look it up.
Solution: 7.00 to 8.00

Exercise: Any idea what pIC50 came out for Cn1cc(Nc2nc(N3C[C@H](CO)C[C@H](NC(=O)c4ccc(C5CC5)cc4)C3)cnc2C(N)=O)cn1 (racemic) on UniProt P42680?
Solution: 7.00 to 8.00

Exercise: Request: pIC50, test system UniProt P42680, entry C[C@@H]1[C@H](NC(=O)c2ccc(C3CC3)cc2)CCCN1c1cnc(C(N)=O)c(Nc2ccc3nccn3c2)n1
Solution: 7.00 to 8.00

Exercise: Hi! What's the reported pIC50 for C[C@@H]1[C@H](NC(=O)c2ccc(C(C)(C)O)cc2)CCCN1c1cnc(C(N)=O)c(Nc2cnn(C)c2)n1 on UniProt P42680?
Solution: ≥ 8.00

Exercise: Entry C[C@@H]1[C@H](NC(=O)c2ccc(C3CC3)c(O)c2)CCCN1c1cnc(C(N)=O)c(Nc2cnn(C)c2)n1 , system UniProt P42680: what pIC50 was measured?
Solution: ≥ 8.00

Exercise: Value wanted: pIC50 (UniProt P42680) of entry Cc1ncc(Nc2nc(N3CCC[C@@H](NC(=O)c4ccc(C5CC5)cc4F)C3)cnc2C(N)=O)s1
Solution: 6.00 to 7.00

Exercise: What pIC50 appears in the records for this compound with UniProt P42680? C[C@@H]1[C@H](NC(=O)c2ccc(C(C)(C)C#N)cc2)CCCN1c1cnc(C(N)=O)c(Nc2cnn(C)c2)n1
Solution: 7.00 to 8.00
